# system_name: CDK4/Cyclin D3 complex (Homo sapiens)
# Construct: made in house; host or cells: insect cells co-infected with baculovirus vectors
# Sequence (P11802 whole entry): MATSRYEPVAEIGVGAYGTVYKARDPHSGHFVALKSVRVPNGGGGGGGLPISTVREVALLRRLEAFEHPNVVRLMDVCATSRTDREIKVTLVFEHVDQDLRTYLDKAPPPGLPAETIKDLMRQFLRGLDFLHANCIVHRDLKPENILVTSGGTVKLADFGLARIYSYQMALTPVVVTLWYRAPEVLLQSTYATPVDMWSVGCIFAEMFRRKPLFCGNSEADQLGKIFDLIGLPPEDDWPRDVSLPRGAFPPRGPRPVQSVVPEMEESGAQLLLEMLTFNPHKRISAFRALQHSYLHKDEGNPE
# Sequence (P30281 whole entry partner): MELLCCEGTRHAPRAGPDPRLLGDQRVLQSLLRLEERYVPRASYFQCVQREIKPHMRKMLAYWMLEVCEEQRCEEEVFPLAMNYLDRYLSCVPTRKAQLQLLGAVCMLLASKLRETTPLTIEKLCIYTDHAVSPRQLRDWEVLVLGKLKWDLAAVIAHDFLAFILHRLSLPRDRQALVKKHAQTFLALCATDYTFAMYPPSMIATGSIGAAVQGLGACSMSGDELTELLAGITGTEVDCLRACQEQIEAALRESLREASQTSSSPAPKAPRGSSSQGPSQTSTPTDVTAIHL
# protocol_text: CDK4/Cyclin D assay
# Format: biochemical
# condition: Table 2; at 10 (head μM)
readout_type: CDK4 % inhibition @ 10 (% @)

[1] Nc1nc(Nc2ccc(S(N)(=O)=O)cc2)sc1-c1nc(-c2ccc(F)cc2)cs1
[2] Cc1ccc(-c2csc(-c3sc(Nc4ccc(S(N)(=O)=O)cc4)nc3N)n2)cc1
Which numeric CDK4 % inhibition @ 10 is bigger, that of 1 or that of 2 ? API: response body contains the label of the selected item. 2
(2: 64 % @, 1: 30 % @)

[P] Cc1c(F)cc(-c2csc(-c3sc(Nc4ccc(S(N)(=O)=O)cc4)nc3N)n2)cc1Cl
[Q] Nc1nc(Nc2ccc(S(N)(=O)=O)cc2)sc1-c1nc(-c2ccc(F)cc2F)cs1
Compare CDK4 % inhibition @ 10: is it lower for P or for Q ? API: response body contains the label of the selected item. P
(P: 28 % @, Q: 42 % @)
